Source: ChEMBL document CHEMBL3885881

The entries below come with measured CARBON DIOXIDE values attached.
# Species: Rattus norvegicus
# assay.protocol: DrugMatrix - Regimen: Daily Repeat
# Assay type: toxicity, organism-based, Sprague-Dawley
# Design: regimen Daily Repeat, gender Male, age 6-8 weeks
# settings: in vivo, po, 0 mg/kg, 72 h, tissue Plasma, route oral GAVAGE, dose level Control, time 3 day, vehicle .5 % CMC
Give just the numeric value; mmol/L need not be written.

CARBON DIOXIDE for CCN(CC)CCOc1ccc(/C(=C(/Cl)c2ccccc2)c2ccccc2)cc1 is 27.5

###

The entries below come with measured ALKALINE PHOSPHATASE values attached.
# Species: Rattus norvegicus
# assay.protocol: DrugMatrix - Regimen: Daily Repeat
# Format: toxicity, organism-based, Sprague-Dawley
# Set-up: regimen Daily Repeat, gender Male, age 6-8 weeks
# settings: in vivo, po, 50 mg/kg, 72 h, tissue Plasma, route oral GAVAGE, dose level Low, time 3 day, vehicle .5 % CMC
Give just the numeric value; u/L need not be written.

ALKALINE PHOSPHATASE for Cc1cccc(C)c1OCC(C)N (centres undefined) [MEXILETINE] is 347.33

ALKALINE PHOSPHATASE for NC1CCN(c2nc3c(cc2F)c(=O)c(C(=O)O)cn3-c2ccc(F)cc2F)C1 (centres undefined) [TOSUFLOXACIN] is 240

ALKALINE PHOSPHATASE for CCN1CCC[C@H]1CNC(=O)c1cc(S(N)(=O)=O)ccc1OC [LEVOSULPIRIDE] is 441.67

ALKALINE PHOSPHATASE for CN(C)[C@@H]1C(O)=C(C(N)=O)C(=O)[C@@]2(O)C(O)=C3C(=O)c4c(O)ccc(Cl)c4[C@@](C)(O)[C@H]3C[C@@H]12 [CHLORTETRACYCLINE] is 403.67
